# reported vapor or sublimation pressure; entries follow
conditions: 283.15 K; Liquid; Gas chromatography
Give the quantity in kPa, number only.

As a guide, the following entries are already answered.
MOLECULE	vapor or sublimation pressure (kPa)
CCCCCCCCN(CCCCCCCC)CCCCCCCC	2e-08
C[C@@H](Cc1ccccc1)N(C)Cc1ccccc1 [(S)-N-benzyl-N-methyl-1-phenylpropan-2-amine]	8e-06
C#CCN(C)[C@H](C)Cc1ccccc1 [(R)-N-methyl-N-(1-phenylpropan-2-yl)prop-2-yn-1-amine]	0.0006
CCCN(CCC)CCC	0.199

*Q* Note down vapor or sublimation pressure recorded for "CCCCCCCCCCCCCCN(C)C"
*A* 1.7e-05

* * *

details: 303.15 K; Liquid; Gas chromatography
The label 1 is reserved for vapor or sublimation pressure strictly under 0.0002 kPa; 0 covers values equal to or above it.

Recorded results for 3 compounds are shown here.
COMPOUND	CATEGORY LABEL
C#CCN(C)[C@H](C)Cc1ccccc1 [(R)-N-methyl-N-(1-phenylpropan-2-yl)prop-2-yn-1-amine]	0
CCCN(CCC)CCC	0
CCCCCCCCCCCCCCN(C)C	1

*Q* Hello, is vapor or sublimation pressure of the following compound strictly smaller than 0.0002 kPa? "c1ccc(CN(Cc2ccccc2)Cc2ccccc2)cc1"
*A* 1

*Q* Hello, is vapor or sublimation pressure of the following compound strictly smaller than 0.0002 kPa? "CCN(CCCc1ccccc1)CCCc1ccccc1"
*A* 1

* * *

conditions: 298.15 K; Liquid; Gas chromatography
VALUE KIND: vapor or sublimation pressure (kPa)
Give the quantity in kPa, number only.

MOLECULE	MEASUREMENT UNIT	RECORDED RESULT
C#CCN(C)[C@H](C)Cc1ccccc1 [(R)-N-methyl-N-(1-phenylpropan-2-yl)prop-2-yn-1-amine]	kPa	0.0025

*Q* Note down vapor or sublimation pressure recorded for CC(C)CN(CC(C)C)CC(C)C [triisobutylamine]
*A* 0.113

*Q* Note down vapor or sublimation pressure recorded for CCCN(CCC)CCC [tripropylamine]
*A* 0.524

*Q* Note down vapor or sublimation pressure recorded for CCN(CCCc1ccccc1)CCCc1ccccc1 [N-ethyl-3-phenyl-N-(3-phenylpropyl)propan-1-amine]
*A* 1.4e-06

*Q* Note down vapor or sublimation pressure recorded for CCCCCCCCCCCCCCN(C)C [1-tetradecanamine, N,N-dimethyl-]
*A* 9.2e-05

*Q* Note down vapor or sublimation pressure recorded for CCCCCCCCN(CCCCCCCC)CCCCCCCC [trioctylamine]
*A* 1.4e-07

*Q* Note down vapor or sublimation pressure recorded for CCCCN(CCCC)CCCC [tributylamine]
*A* 0.028

*Q* Note down vapor or sublimation pressure recorded for C[C@@H](Cc1ccccc1)N(C)Cc1ccccc1 [(S)-N-benzyl-N-methyl-1-phenylpropan-2-amine]
*A* 4e-05

*Q* Note down vapor or sublimation pressure recorded for c1ccc(CN(Cc2ccccc2)Cc2ccccc2)cc1 [benzenemethanamine, N,N-bis(phenylmethyl)-]
*A* 5e-07

*Q* Note down vapor or sublimation pressure recorded for CCCCCCCCCCCCCCCCN(C)C [1-hexadecanamine, N,N-dimethyl-]
*A* 1.1e-05

* * *

test: molar enthalpy of vaporization or sublimation; conditions: 298 K; Liquid; DSC
Think of 60 kJ/mol as a floor: if molar enthalpy stands on it or above, it is T; beneath it, F.

*Q* Could you please find out whether "CCN(CCCc1ccccc1)CCCc1ccccc1" has molar enthalpy that meets 60 kJ/mol or exceeds it?
*A* T

* * *

settings: 283.15 K; Liquid; Gas chromatography
The label criterion met is reserved for vapor or sublimation pressure strictly under 0.008 kPa; criterion not met covers values equal to or above it.

Recorded results for 3 molecules are shown here.
TEST SMILES	CATEGORY LABEL
CCN(CCCc1ccccc1)CCCc1ccccc1	criterion met
c1ccc(CN(Cc2ccccc2)Cc2ccccc2)cc1	criterion met
CC(C)CN(CC(C)C)CC(C)C	criterion not met

Lab note: next molecule to report on.
*Q* Hello, is vapor or sublimation pressure of the following molecule strictly smaller than 0.008 kPa? "CCCCCCCCCCCCCCCCN(C)C"
*A* criterion met

* * *

# reported vapor or sublimation pressure; entries follow
settings: 303.15 K; Liquid; Gas chromatography
Give the quantity in kPa, number only.

COMPOUND	MEASUREMENT UNIT	vapor or sublimation pressure
CCCCN(CCCC)CCCC	kPa	0.042
CCCCCCCCCCCCCCCCN(C)C	kPa	1.9e-05
C[C@@H](Cc1ccccc1)N(C)Cc1ccccc1 [(S)-N-benzyl-N-methyl-1-phenylpropan-2-amine]	kPa	6.7e-05
CCCCCCCCN(CCCCCCCC)CCCCCCCC	kPa	2.8e-07

*Q* Note down vapor or sublimation pressure recorded for "CC(C)CN(CC(C)C)CC(C)C"
*A* 0.159

* * *

details: 313.15 K; Liquid; Gas chromatography
VALUE KIND: vapor or sublimation pressure (kPa)
Give the quantity in kPa, number only.

As a guide, the following entries are already answered.
COMPOUND	vapor or sublimation pressure (kPa)
CCCCCCCCCCCCCCCCN(C)C	5.5e-05
CCCCN(CCCC)CCCC	0.087
CCCN(CCC)CCC	1.259
CC(C)CN(CC(C)C)CC(C)C	0.306
CCCCCCCCN(CCCCCCCC)CCCCCCCC	1e-06

*Q* Note down vapor or sublimation pressure recorded for "c1ccc(CN(Cc2ccccc2)Cc2ccccc2)cc1"
*A* 3.03e-06

*Q* Note down vapor or sublimation pressure recorded for C#CCN(C)[C@H](C)Cc1ccccc1 [(R)-N-methyl-N-(1-phenylpropan-2-yl)prop-2-yn-1-amine]
*A* 0.0086

*Q* Note down vapor or sublimation pressure recorded for C[C@@H](Cc1ccccc1)N(C)Cc1ccccc1 [(S)-N-benzyl-N-methyl-1-phenylpropan-2-amine]
*A* 0.000179

*Q* Note down vapor or sublimation pressure recorded for "CCN(CCCc1ccccc1)CCCc1ccccc1"
*A* 7.8e-06

*Q* Note down vapor or sublimation pressure recorded for "CCCCCCCCCCCCCCN(C)C"
*A* 0.00041

* * *

conditions: 293.15 K; Liquid; Gas chromatography
VALUE KIND: vapor or sublimation pressure (kPa)
Give the quantity in kPa, number only.

MOLECULE	VALUE KIND	RECORDED RESULT
C#CCN(C)[C@H](C)Cc1ccccc1 [(R)-N-methyl-N-(1-phenylpropan-2-yl)prop-2-yn-1-amine]	vapor or sublimation pressure	0.0016
C[C@@H](Cc1ccccc1)N(C)Cc1ccccc1 [(S)-N-benzyl-N-methyl-1-phenylpropan-2-amine]	vapor or sublimation pressure	2.4e-05
CCN(CCCc1ccccc1)CCCc1ccccc1	vapor or sublimation pressure	7e-07
CC(C)CN(CC(C)C)CC(C)C	vapor or sublimation pressure	0.079
CCCCCCCCCCCCCCCCN(C)C	vapor or sublimation pressure	6e-06

Please examine the following record next.
*Q* Note down vapor or sublimation pressure recorded for "CCCCCCCCCCCCCCN(C)C"
*A* 5.4e-05

* * *

# reported vapor or sublimation pressure; entries follow
conditions: 288.15 K; Liquid; Gas chromatography
Give the quantity in kPa, number only.

As a guide, the following entries are already answered.
COMPOUND	vapor or sublimation pressure / kPa
CCCCCCCCN(CCCCCCCC)CCCCCCCC	3e-08
CC(C)CN(CC(C)C)CC(C)C	0.055
C[C@@H](Cc1ccccc1)N(C)Cc1ccccc1 [(S)-N-benzyl-N-methyl-1-phenylpropan-2-amine]	1.4e-05

*Q* Note down vapor or sublimation pressure recorded for C#CCN(C)[C@H](C)Cc1ccccc1 [(R)-N-methyl-N-(1-phenylpropan-2-yl)prop-2-yn-1-amine]
*A* 0.001

*Q* Note down vapor or sublimation pressure recorded for "CCCCCCCCCCCCCCN(C)C"
*A* 3.1e-05

*Q* Note down vapor or sublimation pressure recorded for "CCN(CCCc1ccccc1)CCCc1ccccc1"
*A* 4e-07

* * *

assay: molar enthalpy of vaporization or sublimation; conditions: 298 K; Liquid; DSC
VALUE KIND: molar enthalpy (kcal/mol)
Give the quantity in kcal/mol, number only.

COMPOUND	molar enthalpy (kcal/mol)
C#CCN(C)[C@H](C)Cc1ccccc1 [(R)-N-methyl-N-(1-phenylpropan-2-yl)prop-2-yn-1-amine]	15.4
CCCCN(CCCC)CCCC [tributylamine]	13.9
CCCCCCCCCCCCCCN(C)C [1-tetradecanamine, N,N-dimethyl-]	18.5
c1ccc(CN(Cc2ccccc2)Cc2ccccc2)cc1 [benzenemethanamine, N,N-bis(phenylmethyl)-]	22.1
CC(C)CN(CC(C)C)CC(C)C [triisobutylamine]	12.5
CCCCCCCCCCCCCCCCN(C)C [1-hexadecanamine, N,N-dimethyl-]	20.3
CCCCCCCCN(CCCCCCCC)CCCCCCCC [trioctylamine]	23.9

Please examine the following record next.
*Q* Note down molar enthalpy recorded for C[C@@H](Cc1ccccc1)N(C)Cc1ccccc1 [(S)-N-benzyl-N-methyl-1-phenylpropan-2-amine]
*A* 18.5

* * *

conditions: 293.15 K; Liquid; Gas chromatography
VALUE KIND: vapor or sublimation pressure (kPa)
Give the quantity in kPa, number only.

COMPOUND	MEASUREMENT UNIT	vapor or sublimation pressure
c1ccc(CN(Cc2ccccc2)Cc2ccccc2)cc1 [benzenemethanamine, N,N-bis(phenylmethyl)-]	kPa	2.7e-07
CCCN(CCC)CCC [tripropylamine]	kPa	0.384
CCCCCCCCN(CCCCCCCC)CCCCCCCC [trioctylamine]	kPa	7e-08

*Q* Note down vapor or sublimation pressure recorded for CCCCN(CCCC)CCCC [tributylamine]
*A* 0.019

Cited source: the NIST ThermoML archive (doi:10.1021/je500358r)
